The origin of these recorded values is PubChem BioAssay (NCI).

For each record, write down the corresponding TGI.
Tested on: HL-60(TB) leukemia
Run description: NCI tumour cell line growth inhibition, 48 h
One number for each entry, in µM.

Example entries and their recorded answers appear below.
## Task Using the record for O=C(c1cccc2cc(O)ccc12)c1cn(CCN2CCOCC2)c2ccccc12 , report its TGI.
## Result 55.5

## Task Could you do the same for C[C@H]1[C@H](C)CC[C@]2(C(=O)OC3OC(CO)C(O)C(O)C3O)CC[C@]3(C)C(=CC[C@@H]4[C@@]5(C)C[C@@H](O)[C@@H]6OC(=O)c7cc(O)c(O)c(O)c7-c7c(cc(O)c(O)c7O)C(=O)OC[C@]6(CO)[C@@H]5CC[C@]43C)[C@H]12 (some centres undefined) , please?
## Result 87.8

## Task What about COc1ccc(C(=O)c2cc(C)c(OC)c(C)c2)c(OC)c1N(C(=O)CCl)C(=O)CCl ?
## Result 0.106

Read the next record carefully.
## Task Which TGI value belongs to COc1cc2c3c(c1OC)C(=O)C(=O)C1=C3N(CCC1)CC2 ?
## Result 70.4

====

Please respond with reported TGI for every item in the list.
System: KM20L2 colon
Run description: NCI tumour cell line growth inhibition, 48 h

A selection of reference data follows.
## Task Report TGI for Cc1nc(-n2nc(-c3ccccc3)cc2-c2ccccc2)sc1C(=O)/C=C/c1ccc(Cl)cc1 please.
## Result 77.6 µM

## Task Next entry: CC(C)C1NC(=O)[C@H](C)OC(=O)[C@@H](C(C)C)NC(=O)[C@@H](C)OC(=O)C(C(C)C)NC(=O)[C@H](C)OC1=O (some centres undefined)
## Result > 100 µM

## Task Would you kindly repeat that for COc1ccc(NS(=O)(=O)c2ccc(N=C3C=C(Nc4ccc(S(=O)(=O)Nc5ccc(OC)nn5)cc4)C(=O)c4ccccc43)cc2)nn1 ?
## Result 31.8 µM

Turning to the following compound.
## Task Field request: TGI | item: COc1ccc(/C=C2\CCc3ccccc3C2=O)cc1OC
## Result > 100 µM

====

Tested on: UACC-62 melanoma
Run description: NCI tumour cell line growth inhibition, 48 h
Where a SMILES comes first, the peptide text is derived from it. [ ]: non-standard residue; d: D form. The star is where a group is joined. ξ: configuration not given here. ξPhe(4-NO2) = NC(Cc1ccc([N+](=O)[O-])cc1)C(=O)O; Boc = CC(C)(C)OC(=O)*
Give measured TGI for each item. Keep answers brief.

// known answers, use as guide
## Task Returns the measured TGI for the input compound. Input: O=S(=O)(NCCNc1cc(-c2cn(-c3ccccc3)nc2-c2cccc(O)c2)ccn1)c1ccc(Br)cc1
## Result 3.87 µM

## Task And what about the compound O=c1oc2ccccc2n1CCCn1c(=O)oc2ccccc21 ?
## Result > 100 µM

## Task What do you have for C=C(C1=CC(=O)C(C)(C)O1)[C@@H]1CC=C([C@@H]2CC[C@H]3[C@@]2(C)CC[C@H]2C(C)(C)C(=O)[C@H](OC(=O)CC(C)(O)CC(=O)O)C[C@]32C)[C@H](O)O1 (some centres not stated) ?
## Result 23.5 µM

## Task Here is the next compound: CCCCN1CCC(O)(c2cc(C(=O)O)[nH]c2-c2cc(C)no2)C1=O (configuration not stated)
## Result > 100 µM

## Task Entry Cc1ccc2c(c1)-c1oc(=O)c(-c3cc4ccccc4oc3=O)cc1C(O)O2 (configuration not stated) please
## Result 35.6 µM

## Task Input CCCCCCCCCC[N+](C)(C)C
## Result 4.59 µM

## Task Next compound: O=C1CN(c2ccccc2)C(=O)CN1CCN1CC(=O)N(c2ccccc2)CC1=O
## Result > 100 µM

## Task For COc1ccc(C[C@H]2NC[C@H](O)[C@H]2OC(C)=O)cc1 then?
## Result 0.225 µM

Batch request: TGI per item, same order as input.
1. CCNC(=O)CNC(=O)C(Cc1ccc([N+](=O)[O-])cc1)NC(=O)OC(C)(C)C (configuration not stated) (Boc-[ξPhe(4-NO2)]-Gly-NHEt)
2. COc1cc(C2SCC(=O)N2NC(=O)c2ccc(NC(C)=O)cc2OC)ccc1O (configuration not stated)
3. COc1ccc2c(c1)C=C(C(C)(C)C)NS2(=O)=O

## Result
> 100 µM
> 100 µM
> 100 µM

Each compound below has a recorded value; state its TGI.
1. CN(C)C1C(=O)C(C(N)=O)=C(O)C2(O)C(=O)C3=C(O)c4c(O)cccc4C(C)(O)C3CC12 (configuration not stated)
2. COc1cc2c(cc1OC)-c1ncc3cc(OC)c(OC)c(OC)c3c1C2
3. COc1ccc(S(=O)(=O)Nc2ccc(-c3csc(N4C(=O)/C(=C/c5cccs5)N=C4c4ccccc4)n3)cc2)cc1Cl
4. Nc1nc(Cc2ccccc2)nc(Cc2ccccc2)c1-c1ccccc1
5. COc1cc2ccc3c4cc(OC)c(OC(C)C)cc4c[n+](C)c3c2cc1OC

## Result
1: > 100 µM; 2: 26.8 µM; 3: > 100 µM; 4: 43 µM; 5: > 100 µM
